molecular target: IFN-gamma (Homo sapiens, UniProt P01579 P01579:24-161); assay: filter; 1x DPBS, 0.1 mg/ml BSA; Table 21 gives 97; conditions: tags: R&D Systems, Minneapolis; chain copies: 2; label: 5'-32P
Sequence (P01579 24-161, one chain of several): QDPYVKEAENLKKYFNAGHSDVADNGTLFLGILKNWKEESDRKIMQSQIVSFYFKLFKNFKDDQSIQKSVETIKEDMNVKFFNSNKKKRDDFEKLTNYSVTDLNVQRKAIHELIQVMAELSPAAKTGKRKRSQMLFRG
measure_name: pKd
Scale explanation: pKd corresponds to minus log10 of a concentration expressed in moles per litre.

query: Record request: pKd value, item ARC821 (AMX(216)_A7) (mixed, dRmY: deoxy A,G; 2'-OMe C,U (cDNA printed, T=U)) DNA: GGGAGAGGAGAGAACGTTCTACGGGGGTCGTGGGAGTAAGGGGGTGTAGGTAGGTCGATCGATCGATCATCGATG
result: 6.85
